Source of measurements: ChEMBL document CHEMBL5034021

# Test system: MRC5
# procedure.summary: Cytotoxicity against human MRC5 assessed as cell viability measured for 72 hrs by cell titer glo luminescent assay
# Format: cell-based
# experimental.conditions: Homo sapiens, MRC5, 72 h
property.name: IC50 (µM)

Nc1ccn([C@@H]2O[C@H](CO)[C@@H](O)C2(F)F)c(=O)n1 ... 35.1
O=C(/C=C/c1ccccc1)OC1CC2CCC(C1)N2C(CC(=O)OC1CC2CCC(C1)N2)c1ccccc1 (racemic) ... 9.8
O=C(/C=C/c1ccccc1)OC1CC2CCC(C1)N2[C@@H](CC(=O)OC1CC2CCC(C1)N2)c1ccccc1 (stereo not given in full) ... 8.4
O=C(/C=C/c1ccccc1)OC1CC2CCC(C1)N2C(CC(=O)OC1CC2CCC(C1)N2C(CC(=O)OC1CC2CCC(C1)N2)c1ccccc1)c1ccccc1 (racemic) ... 4.2

* * *

# System: ASPC1
# procedure.summary: Cytotoxicity against human ASPC1 assessed as cell viability measured for 72 hrs by cell titer glo luminescent assay
# Format: functional, cell-based
# experimental.conditions: ASPC1, 72 h
pIC50: −log10 of the molar value.
Reported pIC50 values are given for each entry in this list.
property.name: pIC50

O=C(/C=C/c1ccccc1)OC1CC2CCC(C1)N2[C@@H](CC(=O)OC1CC2CCC(C1)N2)c1ccccc1 (stereo not given in full) ... 5.24
O=C(/C=C/c1ccccc1)OC1CC2CCC(C1)N2C(CC(=O)OC1CC2CCC(C1)N2C(CC(=O)OC1CC2CCC(C1)N2)c1ccccc1)c1ccccc1 (racemic) ... 5.47
O=C(/C=C/c1ccccc1)OC1CC2CCC(C1)N2C(CC(=O)OC1CC2CCC(C1)N2)c1ccccc1 (racemic) ... 5.22
O=C(/C=C/c1ccccc1)OC1CC2CCC(C1)N2[C@H](CC(=O)OC1CC2CCC(C1)N2)c1ccccc1 (stereo not given in full) ... 5.11
Nc1ccn([C@@H]2O[C@H](CO)[C@@H](O)C2(F)F)c(=O)n1 [GEMCITABINE] ... 4.54
